All values here come from PubChem BioAssay AID651592.

# pIC50 per record follows
experiment: inhibitors of NFkB activation in CF airway cells, SAR follow-up, KKLEB cells, panel, IL8 HTRF, NFkB-GFP (AID 651592); conditions: PAF/TNFa-induced NFkB-GFP / IL8 HTRF, CF-PAF assay, run 4;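 further: immortalized cystic fibrosis airway epithelial KKLEB cells with an NF-kB GFP reporter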
pIC50: −log10 of the molar value.

mol-smiles	pIC50
O=C(Nc1ccc(N2CCN(C(=O)c3ccc(F)cc3)CC2)cc1)c1cncc(Br)c1	5.64
O=C(Nc1ccc(N2CCN(C(=O)c3ccccc3Cl)CC2)cc1)c1ccncc1	5.28
O=C(Nc1ccc(N2CCN(C(=O)c3ccc(F)cc3)CC2)cc1)c1ccccn1	< 4.18
Cc1ccc(NCc2cc3c(C(C)(C)C)nn(-c4ccccc4)c3[nH]c2=O)cc1	< 4.18
O=C(Nc1ccc(N2CCN(C(=O)c3ccccc3)CC2)cc1)c1ccccn1	< 4.18
CCOc1ccc(NCc2cc3c(C(C)(C)C)nn(-c4ccc(Cl)cc4)c3[nH]c2=O)cc1	< 4.18
O=C(Nc1ccc(N2CCN(C(=O)c3ccccc3F)CC2)cc1)c1ccccn1	< 4.18
O=C(Nc1ccc(N2CCN(C(=O)c3ccc(F)cc3)CC2)cc1)c1cccc(Br)c1	< 4.18
O=C(Nc1ccc(N2CCN(C(=O)c3ccccc3Cl)CC2)cc1)c1cccc(Br)c1	< 4.18
O=C(Nc1ccc(N2CCN(C(=O)c3ccccc3F)CC2)cc1)c1cccnc1	< 4.18
O=C(Nc1ccc(N2CCN(C(=O)c3ccccc3F)CC2)cc1)c1ccccc1	< 4.18
O=C(Nc1ccc(N2CCN(C(=O)c3ccccc3)CC2)cc1)c1cccnc1	< 4.18
Cc1ccc(CNCc2cc3c(C(C)(C)C)nn(-c4ccccc4)c3[nH]c2=O)cc1	< 4.18
O=C(Nc1ccc(N2CCN(C(=O)c3ccccc3Cl)CC2)cc1)c1ccccc1	> 5.00
O=C(Nc1ccc(N2CCN(C(=O)c3ccc(F)cc3)CC2)cc1)c1cccnc1	< 4.18
